- target or test system: 14-3-3 epsilon (14-3-3ε, YWHAE) (Mus musculus, UniProt P62259)
- Construct: full-length mouse 14-3-3ε, His-tagged, from Sf9 cells
- Sequence (P62259 whole entry): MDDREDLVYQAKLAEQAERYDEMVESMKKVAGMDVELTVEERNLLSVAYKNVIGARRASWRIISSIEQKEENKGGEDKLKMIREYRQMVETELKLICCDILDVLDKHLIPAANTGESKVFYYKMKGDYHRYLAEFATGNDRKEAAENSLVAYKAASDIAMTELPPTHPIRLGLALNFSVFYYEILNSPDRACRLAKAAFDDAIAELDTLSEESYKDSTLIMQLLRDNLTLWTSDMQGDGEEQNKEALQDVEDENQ
- test protocol: ITC with purified protein; supported by CETSA/ITDRF-CETSA in macrophage lysates and FP displacement of p-TFEB peptide (IC50 […])
endpoint name: Kd (µM)
One number for each entry, in µM.

## Task Name the recorded Kd for `O=C1C[C@@H](c2ccc(O)cc2)Oc2cc(O)cc(O)c21` .
## Result 30.6
